ASSAY_PROCEDURE: collision cross section of modified peptide (TIMS, N2, iRT-aligned); higher = larger / more extended gas-phase ion
MEASUREMENT_CONTEXT: charge state: 3; modification: Methyl (R)
collision cross section below 500 Å² gives condition not met; collision cross section at or above it gives condition met.

Solved cases (8 shown):
GFLQPPPLRQPR [_GFLQPPPLR(Methyl (R))QPR_]
condition not met
LLALSGPGGGRGR [_LLALSGPGGGR(Methyl (R))GR_]
condition not met
HTLLRAPAPELLPANVAGR [_HTLLR(Methyl (R))APAPELLPANVAGR_]
condition met
GGGFGAHGRGR [_GGGFGAHGR(Methyl (R))GR_]
condition not met
LGTTPSVYGGAGGRGIR [_LGTTPSVYGGAGGR(Methyl (R))GIR_]
condition met
GEGGFGGRGGGR [_GEGGFGGR(Methyl (R))GGGR_]
condition not met
GLATFPSRGAK [_GLATFPSR(Methyl (R))GAK_]
condition not met
LGILPVGRGK [_LGILPVGR(Methyl (R))GK_]
condition not met

Please tell me: is the sequence STNVTVAAARGIK [_STNVTVAAAR(Methyl (R))GIK_] at or over 500 Å² in terms of collision cross section?
condition not met

Determine whether measured collision cross section meets or exceeds 500 Å² for GGGYGGDRGGYGGDR [_GGGYGGDR(Methyl (R))GGYGGDR_]
condition not met

Form field: collision cross section at least 500 Å²? Entry: GTGRGGGGGGGGGAPR [_GTGR(Methyl (R))GGGGGGGGGAPR_]
condition not met

###

ASSAY_PROCEDURE: collision cross section of modified peptide (TIMS, N2, iRT-aligned); higher = larger / more extended gas-phase ion
MEASUREMENT_CONTEXT: charge state: 3; modification: Succinyl
MEASURE_NAME: collision cross section (Å²)
Express your answer in Å², writing the number without its unit.

GGPGSTLSFVGKR [_GGPGSTLSFVGK(Succinyl)R_]
434.26
DSSPTTNSKLSALQR [_DSSPTTNSK(Succinyl)LSALQR_]
496.14
VDVEVPDVSLEGPEGKLK [_VDVEVPDVSLEGPEGK(Succinyl)LK_]
501.13
VDIDVPDVNIEGPDAKLK [_VDIDVPDVNIEGPDAK(Succinyl)LK_]
508.07
DVNAAIAAIKTK [_DVNAAIAAIK(Succinyl)TK_]
461.32
DHLSDKESK [_DHLSDK(Succinyl)ESK_]
416.05
SGNLTEDDKHNNAK [_SGNLTEDDK(Succinyl)HNNAK_]
478.73
TQDQISNIKYHEEFEK [_TQDQISNIK(Succinyl)YHEEFEK_]
549.89
FGTINIVHPKLGSYTK [_FGTINIVHPK(Succinyl)LGSYTK_]
560.66
AAINQKLIETGER [_AAINQK(Succinyl)LIETGER_]
475.95

State, in one line, measured collision cross section of LLFSNTAAQKLR [_LLFSNTAAQK(Succinyl)LR_]
482.98

Read the entry VYIASSSGSTAIKK [_VYIASSSGSTAIK(Succinyl)K_] and write its reported collision cross section.
508.16

Respond only with collision cross section recorded for GEVGAGAGPGAQAGPSAKR [_GEVGAGAGPGAQAGPSAK(Succinyl)R_]
474.67

Name the recorded collision cross section of the item SLEEEGAAHSGKR [_SLEEEGAAHSGK(Succinyl)R_] in your answer.
470.94

Determine from records and report collision cross section for INNFSADIKDSK [_INNFSADIK(Succinyl)DSK_]
465.51

Report measured collision cross section; entry is DTGEKLTVAENEAETK [_DTGEK(Succinyl)LTVAENEAETK_]
515.74

State its collision cross section: AAQASDLEKIHLDEK [_AAQASDLEK(Succinyl)IHLDEK_]
505.3

###

ASSAY_PROCEDURE: collision cross section of modified peptide (TIMS, N2, iRT-aligned); higher = larger / more extended gas-phase ion
MEASUREMENT_CONTEXT: charge state: 2; modification: Crotonyl
The entries below come with measured collision cross section values attached.
Only the number, expressed in Å², is required.

ALASIDSKLNQAK [_ALASIDSK(Crotonyl)LNQAK_]
401.19

# return recorded collision cross section for input VETTVTSLKTK [_VETTVTSLK(Crotonyl)TK_]
389.71

Tell me its collision cross section given LQDVSGQLSSSKK [_LQDVSGQLSSSK(Crotonyl)K_] as the entry.
402.23

For the sequence DLGKFQVATDALK [_DLGK(Crotonyl)FQVATDALK_] , give its reported collision cross section.
409.72

###

ASSAY_PROCEDURE: collision cross section of modified peptide (TIMS, N2, iRT-aligned); higher = larger / more extended gas-phase ion
MEASUREMENT_CONTEXT: charge state: 3; modification: hydroxyisobutyryl
± gives the standard deviation.
# Lookup of reported collision cross section keyed by entry

Worked examples, 8 sequences total:
ITESVAETAQTIKK [_ITESVAETAQTIK(hydroxyisobutyryl)K_]
520.92 ± 2 Å²
GFALVGVGSEASSKK [_GFALVGVGSEASSK(hydroxyisobutyryl)K_]
502.54 ± 2.1 Å²
DFDTALKHYDK [_DFDTALK(hydroxyisobutyryl)HYDK_]
468.72 ± 1.9 Å²
FSAYIKNSNPALNDNLEK [_FSAYIK(hydroxyisobutyryl)NSNPALNDNLEK_]
551.92 ± 1.1 Å²
SGNLTEDDKHNNAK [_SGNLTEDDK(hydroxyisobutyryl)HNNAK_]
488.54 ± 1.1 Å²
PASGAGAGAGAGKR [_PASGAGAGAGAGK(hydroxyisobutyryl)R_]
470.09 ± 2.8 Å²
TQAYQDQKPGTSGLR [_TQAYQDQK(hydroxyisobutyryl)PGTSGLR_]
484.99 ± 2.8 Å²
ANEKTESSSAQQVAVSR [_ANEK(hydroxyisobutyryl)TESSSAQQVAVSR_]
538.5 ± 0.04 Å²

Provide one value: measured collision cross section of HELQANCYEEVKDR [_HELQANCYEEVK(hydroxyisobutyryl)DR_]
504.98 ± 2.9 Å²

Please give measured collision cross section of the following entry: FGTINIVHPKLGSYTK [_FGTINIVHPK(hydroxyisobutyryl)LGSYTK_]
560.61 ± 2.1 Å²

// fetch collision cross section given entry DESFLGKLGGTLAR [_DESFLGK(hydroxyisobutyryl)LGGTLAR_]
498.29 ± 2.3 Å²

Report collision cross section, nothing else, for this sequence: SPDEAYAIAKK [_SPDEAYAIAK(hydroxyisobutyryl)K_]
453.4 ± 3.9 Å²

Give recorded collision cross section. INNFSADIKDSK [_INNFSADIK(hydroxyisobutyryl)DSK_]
466.44 ± 1.1 Å²

###

ASSAY_PROCEDURE: collision cross section of modified peptide (TIMS, N2, iRT-aligned); higher = larger / more extended gas-phase ion
MEASUREMENT_CONTEXT: charge state: 2; modification: Methyl (R)
Entries and their collision cross section values follow.
Only the number, expressed in Å², is required.

// worked examples, collision cross section included
RLPNVHGR [_R(Methyl (R))LPNVHGR_]
332.28
GRGGPGPAQR [_GR(Methyl (R))GGPGPAQR_]
327.6
ANAIGRGAK [_ANAIGR(Methyl (R))GAK_]
322.43
YRGDYDR [_YR(Methyl (R))GDYDR_]
328.99
LLRGVGGSHGR [_LLR(Methyl (R))GVGGSHGR_]
374.24
GARLPGPVSSAR [_GAR(Methyl (R))LPGPVSSAR_]
360.12
SGATAGAAGGRGK [_SGATAGAAGGR(Methyl (R))GK_]
366.66
PGTPAGYGRGR [_PGTPAGYGR(Methyl (R))GR_]
362.47
PLPVALQTRLAK [_PLPVALQTR(Methyl (R))LAK_]
400.79
GRGTSQLAEGATAK [_GR(Methyl (R))GTSQLAEGATAK_]
391.78

Kindly consider the entry below.
Give recorded collision cross section. SRFYSGFNSR [_SR(Methyl (R))FYSGFNSR_]
375.99

###

ASSAY_PROCEDURE: collision cross section of unmodified peptide (TIMS, N2, iRT-aligned); higher = larger / more extended gas-phase ion
MEASUREMENT_CONTEXT: charge state: 2
MEASURE_NAME: collision cross section (Å²)
Report as a plain number; the unit Å² is understood.

PGGEGPQCEKTTDVK
411.04

Determine from records and report collision cross section for `AAYQAAIRGVGSAQSR`
436.77

# return recorded collision cross section for input `YILIPASQQPK`
375.08

Dear colleague, please send me the reported collision cross section for `GPPRGGPGGELPR` when you can.
366.24

Indicate its recorded collision cross section; the sequence in question is `GLPGEPGPR`
309.4

###

ASSAY_PROCEDURE: collision cross section of modified peptide (TIMS, N2, iRT-aligned); higher = larger / more extended gas-phase ion
MEASUREMENT_CONTEXT: charge state: 2; modification: Glutarylation
Each record here notes measured collision cross section.
Kindly answer with a numeric value in Å², unit omitted.

# example entries with known answers
LEEVTGKLQVAR [_LEEVTGK(Gluratylation)LQVAR_]
400.05
ITASLCDLKSR [_ITASLCDLK(Gluratylation)SR_]
391.61
LEKTIDDLEEK [_LEK(Gluratylation)TIDDLEEK_]
410.17
INNFSADIKDSK [_INNFSADIK(Gluratylation)DSK_]
404.4
VGLQVVAVKAPGFGDNR [_VGLQVVAVK(Gluratylation)APGFGDNR_]
447.64
AAINQKLIETGER [_AAINQK(Gluratylation)LIETGER_]
412.05
AAQASDLEKIHLDEK [_AAQASDLEK(Gluratylation)IHLDEK_]
471.95
SSFAYKDQNENR [_SSFAYK(Gluratylation)DQNENR_]
404.81

As a next step, examine the sequence that follows.
Name the recorded collision cross section of the sequence listed here: TGGTQTDLFTCGKCK [_TGGTQTDLFTCGK(Gluratylation)CK_]
442.58
